Target protein (sequence): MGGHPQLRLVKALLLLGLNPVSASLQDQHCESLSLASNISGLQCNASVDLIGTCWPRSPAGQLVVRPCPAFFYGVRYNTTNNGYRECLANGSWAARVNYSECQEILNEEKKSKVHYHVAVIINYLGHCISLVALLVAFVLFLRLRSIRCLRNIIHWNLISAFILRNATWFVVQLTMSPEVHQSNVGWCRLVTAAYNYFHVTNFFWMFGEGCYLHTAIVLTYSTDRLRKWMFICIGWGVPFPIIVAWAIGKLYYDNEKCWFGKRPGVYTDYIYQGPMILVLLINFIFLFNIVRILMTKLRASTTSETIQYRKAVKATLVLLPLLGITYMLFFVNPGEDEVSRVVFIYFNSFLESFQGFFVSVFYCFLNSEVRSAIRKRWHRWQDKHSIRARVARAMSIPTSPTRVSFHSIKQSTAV
Quantity: Ki (nM)

Recorded results for 4 molecules are shown here.
Molecule	Test Result
CC[C@H]1Cn2nc(-c3ccc(Cl)cc3Cl)c3nc(C)cc(c32)N1Cc1ccccc1	158
CC[C@H]1Cn2nc(-c3ccc(F)cc3Cl)c3nc(C)cc(c32)N1CC1CC1	12.6
CC[C@H]1Cn2nc(-c3ccc(Cl)cc3Cl)c3nc(C)cc(c32)N1CC(C)C	15.8
CC[C@H]1Cn2nc(-c3ccc(C(F)(F)F)cc3C(F)(F)F)c3nc(C)cc(c32)N1CC1CC1	7.94

I. CC[C@H]1Cn2nc(-c3ccc(Cl)cc3C)c3nc(C)cc(c32)N1CC1CC1
II. CC[C@H]1Cn2nc(-c3ccc(Cl)cc3C(F)(F)F)c3nc(C)cc(c32)N1CC1CC1
III. Cc1cc2c3c(n1)c(-c1ccc(Cl)cc1Cl)nn3CCN2C1CCCCC1
Hey, quick one: sort these by Ki, low to high? Your task in answering is to list the labels in the requested order.
I, II, III

====

Target sequence: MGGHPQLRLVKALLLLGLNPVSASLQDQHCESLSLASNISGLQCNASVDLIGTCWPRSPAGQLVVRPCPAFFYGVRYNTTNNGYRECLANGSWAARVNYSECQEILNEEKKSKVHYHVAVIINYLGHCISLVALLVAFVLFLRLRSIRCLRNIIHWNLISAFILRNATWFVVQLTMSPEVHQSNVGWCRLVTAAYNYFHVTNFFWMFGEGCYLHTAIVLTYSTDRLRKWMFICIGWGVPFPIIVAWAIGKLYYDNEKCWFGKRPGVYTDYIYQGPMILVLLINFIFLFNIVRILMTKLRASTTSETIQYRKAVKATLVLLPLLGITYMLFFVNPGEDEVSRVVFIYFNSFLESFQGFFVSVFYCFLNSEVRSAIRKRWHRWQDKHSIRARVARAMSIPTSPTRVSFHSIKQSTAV
Quantity: Ki (nM)

Recorded Ki, per entry:
Compound	Ki [nM]
CC[C@H]1Cn2nc(-c3ccc(OC)cc3C)c3nc(C)cc(c32)N1CC1CC1	10
CC[C@H]1Cn2nc(-c3ccc(Cl)cc3Cl)c3nc(C)cc(c32)N1	794
CCC(COC)N1CCn2nc(-c3ccc(Cl)cc3Cl)c3nc(C)cc1c32 (configuration not stated)	63.1
CCCN1c2cc(C)nc3c(-c4ccc(Cl)cc4Cl)nn(c23)C[C@@H]1CC	31.6

I. CC[C@H]1Cn2nc(-c3ccc(Cl)cc3OC)c3nc(C)cc(c32)N1CC1CC1
II. CC[C@H]1Cn2nc(-c3ccc(Cl)cc3Cl)c3nc(C)cc(c32)N1CC
Please indicate which entry, I or II , has the lower recorded Ki value. Identify your selection by its label.
I
(I: 25.1 nM, II: 63.1 nM)

A. CCCCC(CCCC)N1CCn2nc(-c3ccc(Cl)cc3Cl)c3nc(C)cc1c32
B. CC[C@H]1Cn2nc(-c3ccc(OC)cc3C(F)(F)F)c3nc(C)cc(c32)N1CC1CC1
C. Cc1cc2c3c(n1)c(-c1ccc(Cl)cc1Cl)nn3CCN2CC(C)C
D. CC[C@H]1Cn2nc(-c3ccc(Cl)cc3Cl)c3nc(C)cc(c32)N1CCOC
Sort entries by Ki from minimum to maximum value. Reply format: the labels, ordered as requested.
A, B, D, C

I. CCCCN1c2cc(C)nc3c(-c4ccc(Cl)cc4Cl)nn(c23)C[C@@H]1CC
II. CC[C@H]1Cn2nc(-c3ccc(OC)cc3Cl)c3nc(C)cc(c32)N1CC1CC1
// compare measured Ki, left I , right II , return larger Provide the label of your selected option as the answer.
I
(I: 6.31 nM, II: 3.98 nM)
